Entries and their measured minimal effective dose follow.
Tested on: Rattus norvegicus
protocol notes: Antiobesity activity in po dosed diet-induced obese rat assessed as inhibition of food consumption measured up to 24 hrs by indirect calorimetry assay
Type: functional
condition label: read-out: MED

>  <molecule>
CC(C)CCNCc1ccc(Oc2ccc(C(N)=O)cn2)cc1

>  <test target>
Rattus norvegicus

>  <recorded result>
0.3 mg/kg

$$$$
>  <molecule>
NC(=O)c1ccc(Oc2ccc(CNCCC3CCCC3)cc2)nc1

>  <test target>
Rattus norvegicus

>  <recorded result>
≤ 3 mg/kg

$$$$
>  <molecule>
CC(C)CCNCc1ccc(Oc2ccc(C(N)=O)cn2)c(F)c1

>  <test target>
Rattus norvegicus

>  <recorded result>
0.3 mg/kg

$$$$
>  <molecule>
NC(=O)c1ccc(Oc2ccc(CNCCc3cccs3)cc2)nc1

>  <test target>
Rattus norvegicus

>  <recorded result>
≤ 3 mg/kg

$$$$
>  <molecule>
CCCCCNCc1ccc(Oc2ccc(C(N)=O)cc2)cc1

>  <test target>
Rattus norvegicus

>  <recorded result>
3 mg/kg

$$$$
>  <molecule>
O=C1CC[C@@]2(O)[C@H]3Cc4ccc(O)c5c4[C@@]2(CCN3CC2CC2)[C@H]1O5 [NALTREXONE]

>  <test target>
Rattus norvegicus

>  <recorded result>
> 10 mg/kg

$$$$

Request: Requested read-out: minimal effective dose. Entry: CC(C)(C)CCNCc1ccc(Oc2ccc(C(N)=O)cn2)cc1
Response: ≤ 3 mg/kg

Request: Requested read-out: minimal effective dose. Entry: Cc1cc(CNCCC(C)C)ccc1Oc1ccc(C(N)=O)cn1
Response: 0.3 mg/kg

Request: Requested read-out: minimal effective dose. Entry: C[C@H]1CN(CC[C@H](O)C2CCCCC2)CC[C@@]1(C)c1cccc(O)c1
Response: 1 mg/kg
